Target: T1, human TMEM106B (human, UniProt Q9NUM4 2-274)
T1 construct: Full-length, on transiently transfected HEK293 cells, or natively expressed on HeLa, U251 and A549 cells; also called huTMEM106B; huTMEM
Experiment: FACS HEK+huTMEM, 1.0 ug/ml
Readout Type: MFI
API doc: respond with a numeric literal and nothing else, no unit.

Guide cases for MFI, answers given:
anti-TMEM106B antibody TM-17 (antibody, V domains shown) VH: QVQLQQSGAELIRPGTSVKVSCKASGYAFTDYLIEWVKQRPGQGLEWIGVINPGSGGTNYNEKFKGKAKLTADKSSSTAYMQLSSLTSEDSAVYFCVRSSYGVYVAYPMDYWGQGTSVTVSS VL: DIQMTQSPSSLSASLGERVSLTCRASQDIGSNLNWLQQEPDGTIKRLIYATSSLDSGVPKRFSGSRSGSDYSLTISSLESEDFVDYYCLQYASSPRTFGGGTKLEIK    2620
anti-TMEM106B antibody TM-15 (antibody, V domains shown, mouse IgG from hybridoma) VH: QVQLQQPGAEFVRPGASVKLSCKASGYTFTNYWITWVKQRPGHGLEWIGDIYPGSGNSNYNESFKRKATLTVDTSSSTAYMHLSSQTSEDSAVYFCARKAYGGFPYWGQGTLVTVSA VL: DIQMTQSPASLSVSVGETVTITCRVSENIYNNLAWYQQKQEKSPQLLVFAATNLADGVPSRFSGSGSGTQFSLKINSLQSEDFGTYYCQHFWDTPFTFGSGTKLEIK    14300
anti-TMEM106B antibody TM-10 (antibody, V domains shown) VH: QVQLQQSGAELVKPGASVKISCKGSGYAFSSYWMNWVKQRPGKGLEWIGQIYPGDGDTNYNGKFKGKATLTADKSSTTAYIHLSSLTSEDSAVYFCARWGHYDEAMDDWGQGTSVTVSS VL: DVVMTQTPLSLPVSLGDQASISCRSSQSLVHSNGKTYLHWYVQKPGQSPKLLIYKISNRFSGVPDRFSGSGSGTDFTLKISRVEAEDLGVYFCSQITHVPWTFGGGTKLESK    44400
anti-TMEM106B antibody TM-19 (antibody, V domains shown) VH: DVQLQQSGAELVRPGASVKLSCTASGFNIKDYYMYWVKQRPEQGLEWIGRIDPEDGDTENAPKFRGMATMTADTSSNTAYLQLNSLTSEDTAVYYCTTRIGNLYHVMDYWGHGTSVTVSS VL: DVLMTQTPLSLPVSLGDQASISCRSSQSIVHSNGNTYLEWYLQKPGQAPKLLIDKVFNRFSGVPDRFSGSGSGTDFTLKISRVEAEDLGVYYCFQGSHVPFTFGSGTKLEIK    66800

Next up:
For this binder ( anti-TMEM106B antibody TM-26 (antibody, V domains shown) VH: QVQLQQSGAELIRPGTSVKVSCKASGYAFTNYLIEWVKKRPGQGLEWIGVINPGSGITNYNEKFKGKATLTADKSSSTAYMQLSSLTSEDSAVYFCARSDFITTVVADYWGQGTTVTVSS VL: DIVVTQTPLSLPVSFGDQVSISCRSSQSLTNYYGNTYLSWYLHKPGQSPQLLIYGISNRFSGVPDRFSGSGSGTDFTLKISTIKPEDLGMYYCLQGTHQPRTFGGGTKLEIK ), measured MFI is 3340
